The reported numbers originate from ChEMBL document CHEMBL1141198.

Assay: Maximum concentration in rat administered with 0.5 mg/kg, iv
Assay type: ADME, organism-based
Set-up: dose 0.5 mg/kg, route intravenous
Conditions: in vivo
Is Cmax at least 700 nM? Then Satisfied. If not, Not satisfied.

Hello, I need to know if "N#CCNC(=O)C1(NC(=O)c2ccc(-c3csc(OC4CCNCC4)n3)cc2)CCCCC1" has measured Cmax not below 700 nM. Thanks!
Satisfied

Hello, I need to know if "CC(C)(C)NC1CCN(c2ccc(-c3ccc(C(=O)NC4(C(=O)NCC#N)CCCCC4)cc3)cc2)CC1" has measured Cmax not below 700 nM. Thanks!
Not satisfied

Hello, I need to know if "CC(C)N(C)C1CCN(c2nc(-c3ccc(C(=O)NC4(C(=O)NCC#N)CCCCC4)cc3)cs2)CC1" has measured Cmax not below 700 nM. Thanks!
Not satisfied

Hello, I need to know if "CN1CCN(Cc2nc(-c3ccc(C(=O)NC4(C(=O)NCC#N)CCCCC4)cc3)cs2)CC1" has measured Cmax not below 700 nM. Thanks!
Not satisfied

Hello, I need to know if "CN1CCC(Oc2ccc(-c3ccc(C(=O)NC4(C(=O)NCC#N)CCCCC4)cc3)cc2)CC1" has measured Cmax not below 700 nM. Thanks!
Not satisfied

Hello, I need to know if "COCCN1CCC(Oc2ccc(-c3ccc(C(=O)NC4(C(=O)NCC#N)CCCCC4)cc3)cc2)CC1" has measured Cmax not below 700 nM. Thanks!
Not satisfied

Hello, I need to know if "N#CCNC(=O)C1(NC(=O)c2ccc(-c3csc(N4CC[C@@H](N)C4)n3)cc2)CCCCC1" has measured Cmax not below 700 nM. Thanks!
Satisfied

Hello, I need to know if "N#CCNC(=O)C1(NC(=O)c2ccc(-c3csc(CN4CCOCC4)n3)cc2)CCCCC1" has measured Cmax not below 700 nM. Thanks!
Not satisfied

Hello, I need to know if "N#CCNC(=O)C1(NC(=O)c2ccc(-c3ccc(S(=O)(=O)N4CCN(CC(F)(F)F)CC4)cc3)cc2)CCCCC1" has measured Cmax not below 700 nM. Thanks!
Satisfied

Hello, I need to know if "COCCN1CCN(c2nc(-c3ccc(C(=O)NC4(C(=O)NCC#N)CCCCC4)cc3)cs2)CC1" has measured Cmax not below 700 nM. Thanks!
Satisfied

Hello, I need to know if "CN1CCC(c2nc(-c3ccc(C(=O)NC4(C(=O)NCC#N)CCCCC4)cc3)cs2)CC1" has measured Cmax not below 700 nM. Thanks!
Satisfied

Hello, I need to know if "N#CCNC(=O)C1(NC(=O)c2ccc(-c3ccc(N4CCNCC4)cc3)cc2)CCCCC1" has measured Cmax not below 700 nM. Thanks!
Not satisfied

Hello, I need to know if "N#CCNC(=O)C1(NC(=O)c2ccc(-c3csc(N4CCOCC4)n3)cc2)CCCCC1" has measured Cmax not below 700 nM. Thanks!
Satisfied

Hello, I need to know if "CN1CCC(C)(c2nc(-c3ccc(C(=O)NC4(C(=O)NCC#N)CCCCC4)cc3)cs2)CC1" has measured Cmax not below 700 nM. Thanks!
Not satisfied

Hello, I need to know if "N#CCNC(=O)C1(NC(=O)c2ccc(-c3csc(N4CCN(C5CCOCC5)CC4)n3)cc2)CCCCC1" has measured Cmax not below 700 nM. Thanks!
Not satisfied

Hello, I need to know if "CC(C)NC1CCN(c2nc(-c3ccc(C(=O)NC4(C(=O)NCC#N)CCCCC4)cc3)cs2)CC1" has measured Cmax not below 700 nM. Thanks!
Not satisfied

Hello, I need to know if "N#CCNC(=O)C1(NC(=O)c2ccc(-c3ccc(OC4CCN(CCO)CC4)cc3)cc2)CCCCC1" has measured Cmax not below 700 nM. Thanks!
Not satisfied

Hello, I need to know if "CN1CCN(N(C)c2nc(-c3ccc(C(=O)NC4(C(=O)NCC#N)CCCCC4)cc3)cs2)CC1" has measured Cmax not below 700 nM. Thanks!
Not satisfied

Hello, I need to know if CN(C)C1CCN(c2nc(-c3ccc(C(=O)NC4(C(=O)NCC#N)CCCCC4)cc3)cs2)C1 (configuration not stated) has measured Cmax not below 700 nM. Thanks!
Not satisfied

Hello, I need to know if CN1CCCC(Oc2ccc(-c3ccc(C(=O)NC4(C(=O)NCC#N)CCCCC4)cc3)cc2)C1 (configuration not stated) has measured Cmax not below 700 nM. Thanks!
Not satisfied

Hello, I need to know if "N#CCNC(=O)C1(NC(=O)c2ccc(-c3ccc(C4(F)CCNCC4)cc3)cc2)CCCCC1" has measured Cmax not below 700 nM. Thanks!
Not satisfied

Hello, I need to know if "N#CCNC(=O)C1(NC(=O)c2ccc(-c3ccc(S(=O)(=O)N4CCNCC4)cc3)cc2)CCCCC1" has measured Cmax not below 700 nM. Thanks!
Satisfied

----------
Molecular target: Cathepsin S (Homo sapiens, UniProt P25774)
Sequence (P25774 whole entry): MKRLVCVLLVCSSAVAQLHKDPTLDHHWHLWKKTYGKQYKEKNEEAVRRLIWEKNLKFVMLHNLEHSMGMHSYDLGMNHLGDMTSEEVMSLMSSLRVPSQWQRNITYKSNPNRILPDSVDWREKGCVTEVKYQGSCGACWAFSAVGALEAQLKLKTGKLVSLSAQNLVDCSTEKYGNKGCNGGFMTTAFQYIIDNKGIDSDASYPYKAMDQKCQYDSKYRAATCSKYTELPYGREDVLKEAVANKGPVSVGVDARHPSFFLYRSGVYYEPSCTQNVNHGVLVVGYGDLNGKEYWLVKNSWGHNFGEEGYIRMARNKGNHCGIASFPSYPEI
Assay: Inhibitory constant against human cathepsin S using Z-Val-Val-Arg-AMC substrate
Settings: read-out: Ki app
endpoint-label: Ki (µM)
Output spec: scalar in µM, unitless text.

The reported value for "N#CCNC(=O)C1(NC(=O)c2cccc(Br)c2)CCCCC1" in terms of Ki is 6.2

The reported value for "N#CCNC(=O)C1(NC(=O)c2ccc(-c3ccc(C4(F)CCNCC4)cc3)cc2)CCCCC1" in terms of Ki is 7.9

The reported value for "N#CCNC(=O)C1(NC(=O)c2ccc(Br)s2)CCCCC1" in terms of Ki is 1.4

The reported value for "CN1CCN(S(=O)(=O)c2ccc(C(=O)NC3(C(=O)NCC#N)CCCCC3)cc2)CC1" in terms of Ki is 102

The reported value for "N#CCNC(=O)C1(NC(=O)c2ccc(-c3ccc(OC4CCN(CCO)CC4)cc3)cc2)CCCCC1" in terms of Ki is 16

The reported value for CCCN1CCN(c2ccc(C(=O)NC3(C(=O)NCC#N)CCCCC3)cc2)CC1 [BALICATIB] in terms of Ki is 28

The reported value for "CC(C)N(C)C1CCN(c2nc(-c3ccc(C(=O)NC4(C(=O)NCC#N)CCCCC4)cc3)cs2)CC1" in terms of Ki is 3.2

The reported value for "N#CCNC(=O)C1(NC(=O)c2ccc(-c3ccc(-c4ccno4)cc3)cc2)CCCCC1" in terms of Ki is 2.5

The reported value for "CC[C@H](C)[C@H](NC(=O)OCc1ccccc1)C(=O)NCC#N" in terms of Ki is 14

----------
Target: Cathepsin B (Homo sapiens, UniProt P07858)
Assay: Inhibitory constant against human cathepsin B using Boc-Leu-Lys-Arg-AMC substrate
Conditions: read-out: Ki app
pKi: −log10 of the molar value.
Is pKi at least 6? Then criterion met. If not, criterion not met.

Hello, I need to know if "CC(C)(C)[C@H](NC(=O)OCc1ccccc1)C(=O)NCC#N" has measured pKi not below 6. Thanks!
criterion not met

Hello, I need to know if "N#CCNC(=O)C1(NC(=O)OCc2ccccc2)CCCC1" has measured pKi not below 6. Thanks!
criterion not met

Hello, I need to know if "CN1CCC[C@H]1COc1ccc(-c2ccc(C(=O)NC3(C(=O)NCC#N)CCCCC3)cc2)cc1" has measured pKi not below 6. Thanks!
criterion met

Hello, I need to know if "COCCN1CCC(Oc2ccc(-c3ccc(C(=O)NC4(C(=O)NCC#N)CCCCC4)cc3)cc2)CC1" has measured pKi not below 6. Thanks!
criterion met

Hello, I need to know if "N#CCNC(=O)C1(NC(=O)c2ccc(-c3csc(N4CC[C@@H](N)C4)n3)cc2)CCCCC1" has measured pKi not below 6. Thanks!
criterion not met

Hello, I need to know if "N#CCNC(=O)C1(NC(=O)c2ccc(Br)cc2)CCCCC1" has measured pKi not below 6. Thanks!
criterion not met

Hello, I need to know if "N#CCNC(=O)C1(NC(=O)c2ccc(-c3ccc(-c4ccno4)cc3)cc2)CCCCC1" has measured pKi not below 6. Thanks!
criterion not met

Hello, I need to know if "C[C@@H](O)[C@H](NC(=O)OCc1ccccc1)C(=O)NCC#N" has measured pKi not below 6. Thanks!
criterion not met

Hello, I need to know if "CC(C)C[C@H](NC(=O)OCc1ccccc1)C(=O)NCC#N" has measured pKi not below 6. Thanks!
criterion not met

----------
Target: Cathepsin B (Homo sapiens, UniProt P07858)
Test: Inhibitory constant against human cathepsin B using Boc-Leu-Lys-Arg-AMC substrate
Details: read-out: Ki app
Categories are assigned from the measured Ki using these intervals: lower range = under 1 µM, middle range = from 1 µM up to 3 µM, upper range = 3 µM and over

Bin? "CN1CCN(c2ccc(C(=O)NC3(C(=O)NCC#N)CCCCC3)cc2)CC1"
middle range

Bin? "N#CCNC(=O)C1(NC(=O)c2ccc(-c3ccc(S(=O)(=O)N4CCNCC4)cc3)cc2)CCCCC1"
lower range

Bin? "CC[C@H](C)[C@H](NC(=O)OCc1ccccc1)C(=O)NCC#N"
upper range

Bin? "C#Cc1ccc(C(=O)NC2(C(=O)NCC#N)CCCCC2)cc1"
middle range

Bin? "N#CCNC(=O)C1(NC(=O)c2ccc(-c3csc(N4CCC(N5CCCCC5)CC4)n3)cc2)CCCCC1"
lower range

Bin? "N#CCNC(=O)C1(NC(=O)c2ccc(-c3csc(OC4CCNCC4)n3)cc2)CCCCC1"
lower range

Bin? "N#CCNC(=O)C1(NC(=O)c2csc(-c3ccncc3)n2)CCCCC1"
upper range

Bin? "N#CCNC(=O)C1(NC(=O)c2cccc(-c3ccccc3)c2)CCCCC1"
upper range

Bin? "N#CCNC(=O)C1(NC(=O)c2ccc(-c3csc(N4CCN(C5CCOCC5)CC4)n3)cc2)CCCCC1"
lower range

Bin? CC(C[C@H](NC(=O)OCc1ccccc1)C(=O)NCC#N)C(F)(F)F (stereo partly specified)
upper range

Bin? "N#CCNC(=O)C1(NC(=O)c2cccc(Br)c2)CCCCC1"
upper range

Bin? "CC(C)(C)N1CCN(c2ccc(-c3ccc(C(=O)NC4(C(=O)NCC#N)CCCCC4)cc3)cc2)CC1"
lower range

Bin? "CN1CCN(S(=O)(=O)c2ccc(C(=O)NC3(C(=O)NCC#N)CCCCC3)cc2)CC1"
upper range

Bin? "N#CCNC(=O)C1(NC(=O)c2ccc(N3CCOCC3)cc2)CCCCC1"
upper range

Bin? CN1CCC(N(C)c2ccc(-c3ccc(C(=O)NC4(C(=O)NCC#N)CCCCC4)cc3)cc2)C1 (stereo unspecified)
lower range

Bin? CN(C)C1CCN(c2nc(-c3ccc(C(=O)NC4(C(=O)NCC#N)CCCCC4)cc3)cs2)C1 (stereo unspecified)
middle range

Bin? "CC(C)C[C@](C)(NC(=O)OCc1ccccc1)C(=O)NCC#N"
upper range

Bin? "N#CCNC(=O)C1(NC(=O)c2ccc(-c3csc(N4CCOCC4)n3)cc2)CCCCC1"
upper range

Bin? "CN(C)c1ccc(C(=O)NC2(C(=O)NCC#N)CCCCC2)cc1"
upper range

Bin? "N#CCNC(=O)C1(NC(=O)c2ccc(Br)s2)CCCCC1"
upper range
